Target: ADP-ribosylation factor GTPase-activating protein 1 (Rattus norvegicus) (UniProt Q62848)
Sequence (Q62848 whole entry): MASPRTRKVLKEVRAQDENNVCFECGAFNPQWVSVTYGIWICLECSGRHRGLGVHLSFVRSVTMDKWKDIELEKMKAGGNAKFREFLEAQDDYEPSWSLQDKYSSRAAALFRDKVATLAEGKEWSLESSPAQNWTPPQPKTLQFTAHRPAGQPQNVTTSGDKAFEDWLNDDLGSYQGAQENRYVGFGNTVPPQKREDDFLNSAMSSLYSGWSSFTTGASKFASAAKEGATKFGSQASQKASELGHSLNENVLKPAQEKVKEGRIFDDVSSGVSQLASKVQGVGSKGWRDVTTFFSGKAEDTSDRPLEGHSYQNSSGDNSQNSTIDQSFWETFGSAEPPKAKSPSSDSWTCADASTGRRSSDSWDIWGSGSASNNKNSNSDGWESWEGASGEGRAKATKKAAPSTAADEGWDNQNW
Assay: Inhibition of poly-histidine tagged full-length rat ARFGAP1 expressed in Sf9 cells assessed as remaining enzyme activity at 10 uM using purified WT ARF1 pre-loaded with [gamm-32P]-labeled GTP incubated for 5 mins before ARF1-GTP addition followed by 25 mins incubation by scintillation counting method
Could you please report measured Activity for the items listed next?
Answer as a quantity: numeral, then unit.

>  <molecule smiles>
COc1nc(N[C@H](CO)Cc2ccccc2)c2ncn(Cc3ccc(-c4ccccc4)cc3)c2n1

>  <Activity>
70%

$$$$
>  <molecule smiles>
FC(F)(F)c1cccc(Oc2nc(NCc3cccc4ccccc34)c3ncn(Cc4ccc(-c5ccccc5)cc4)c3n2)c1

>  <Activity>
16%

$$$$
>  <molecule smiles>
CC[C@@H](CO)Nc1nc(Oc2ccc3ccccc3c2)nc2c1ncn2Cc1ccc(-c2ccccc2)cc1

>  <Activity>
41%

$$$$
>  <molecule smiles>
FC(F)(F)c1cccc(Oc2nc(NCCc3ccccc3)c3ncn(Cc4ccc(-c5ccccc5)cc4)c3n2)c1

>  <Activity>
41%

$$$$
>  <molecule smiles>
COC(=O)[C@H](Cc1ccccc1)Nc1nc(Oc2ccc3ccccc3c2)nc2c1ncn2Cc1ccc(-c2ccccc2)cc1

>  <Activity>
25%

$$$$
>  <molecule smiles>
OC[C@H](Cc1ccccc1)Nc1nc(Oc2ccc3c(c2)CCC3)nc2c1ncn2Cc1ccc(-c2ccccc2F)cc1

>  <Activity>
81%

$$$$
>  <molecule smiles>
COC(=O)[C@H](Cc1ccccc1)Nc1nc(Oc2cccc3ccccc23)nc2c1ncn2Cc1ccc(-c2ccccc2)cc1

>  <Activity>
21%

$$$$
>  <molecule smiles>
COC(=O)[C@H](Cc1ccccc1)Nc1nc(Oc2ccc3c(c2)OCO3)nc2c1ncn2Cc1ccc(-c2ccccc2)cc1

>  <Activity>
31%

$$$$

Dear colleague, could you please provide Activity for the compounds listed below?
1. OC[C@H](Cc1ccccc1)Nc1nc(Oc2ccc3c(c2)CCC3)nc2c1ncn2-c1ccc(-c2ccccc2)cc1
2. c1ccc(-c2ccc(Cn3cnc4c(NCc5cccc6ccccc56)nc(Oc5cccc6ccccc56)nc43)cc2)cc1
3. COc1cccc(Oc2nc(NCCc3ccccc3)c3ncn(Cc4ccc(-c5ccccc5)cc4)c3n2)c1
4. COc1ccc(Cn2cc(Cn3cnc4c(N[C@H](CO)Cc5ccccc5)nc(Oc5ccc6c(c5)CCC6)nc43)nn2)cc1
5. COc1ccc(Oc2nc(N[C@H](CO)Cc3ccccc3)c3ncn(Cc4ccc(-c5ccccc5)cc4)c3n2)cc1OC

1: 50%; 2: 20%; 3: 46%; 4: 98%; 5: 55%

Give one value of Activity per listed compound.
1. COc1cc(OC)cc(Oc2nc(N[C@H](CO)Cc3ccccc3)c3ncn(Cc4ccc(-c5ccccc5)cc4)c3n2)c1
2. OC[C@H](Cc1ccccc1)Nc1nc(Oc2ccc3c(c2)CCC3)nc2c1ncn2Cc1cn(Cc2ccccc2)nn1
3. O=[N+]([O-])c1ccc(Cn2cc(Cn3cnc4c(N[C@H](CO)Cc5ccccc5)nc(Oc5ccc6c(c5)CCC6)nc43)nn2)cc1

24%
93%
58%

---

Give Activity for every item shown.
Molecular target: ADP-ribosylation factor GTPase-activating protein 1 (Rattus norvegicus)
Experiment: Inhibition of poly-histidine tagged full-length rat ARFGAP1 expressed in Sf9 cells assessed as remaining enzyme activity at 20 uM using purified WT ARF1 pre-loaded with [gamm-32P]-labeled GTP incubated for 5 mins before ARF1-GTP addition followed by 25 mins incubation by scintillation counting method
Answer with the figure and its unit, nothing else.

>  <molecule smiles>
c1ccc(-c2ccc(Cn3cnc4c(NCc5cccc6ccccc56)nc(Oc5cccc6ccccc56)nc43)cc2)cc1

>  <target of assay>
ADP-ribosylation factor GTPase-activating protein 1 (Rattus norvegicus)

>  <measured result>
20%

$$$$

Please state, for each entry, its recorded Activity.
1. CC[C@@H](CO)Nc1nc(Oc2ccc3c(c2)OCO3)nc2c1ncn2Cc1ccc(-c2ccccc2)cc1
2. c1ccc(CCNc2nc(Oc3ccc4ccccc4c3)nc3c2ncn3Cc2ccc(-c3ccccc3)cc2)cc1
3. COc1ccc(Oc2nc(N[C@H](CO)Cc3ccccc3)c3ncn(Cc4ccc(-c5ccccc5)cc4)c3n2)cc1OC
4. CC[C@@H](CO)Nc1nc(Oc2cccc3ccccc23)nc2c1ncn2Cc1ccc(-c2ccccc2)cc1
5. FC(F)(F)c1cccc(Oc2nc(NCCc3ccccc3)c3ncn(Cc4ccc(-c5ccccc5)cc4)c3n2)c1

1. 32%
2. 86%
3. 22%
4. 15%
5. 33%

Look at each molecule and report its Activity.
1. COC(=O)[C@H](Cc1ccccc1)Nc1nc(Oc2ccc3ccccc3c2)nc2c1ncn2Cc1ccc(-c2ccccc2)cc1
2. COC(=O)[C@H](Cc1ccccc1)Nc1nc(Oc2cccc3ccccc23)nc2c1ncn2Cc1ccc(-c2ccccc2)cc1
3. c1ccc(-c2ccc(Cn3cnc4c(NCc5cccc6ccccc56)nc(Oc5ccc6c(c5)CCC6)nc43)cc2)cc1
4. COc1nc(N[C@H](CO)Cc2ccccc2)c2ncn(Cc3ccc(-c4ccccc4)cc3)c2n1
5. Cc1ccccc1-c1ccc(Cn2cnc3c(N[C@H](CO)Cc4ccccc4)nc(Oc4ccc5c(c4)CCC5)nc32)cc1
6. OC[C@H](Cc1ccccc1)Nc1nc(Oc2ccc3c(c2)CCC3)nc2c1ncn2Cc1ccc(-c2ccccc2)cc1

1: 17%; 2: 12%; 3: 63%; 4: 39%; 5: 41%; 6: 10%

For each of the molecules below, state Activity.
1. OC[C@H](Cc1ccccc1)Nc1nc(Oc2ccc3c(c2)CCC3)nc2c1ncn2Cc1cn(Cc2ccccc2)nn1
2. COc1cccc(Oc2nc(NCCc3ccccc3)c3ncn(Cc4ccc(-c5ccccc5)cc4)c3n2)c1
3. OC[C@H](Cc1ccccc1)Nc1nc(Oc2ccc3c(c2)CCC3)nc2c1ncn2Cc1ccc(Oc2ccccc2)cc1

62%
40%
40%

Would you be so kind as to report Activity for each listed record?
1. c1ccc(CCNc2nc(Oc3ccc4c(c3)OCO4)nc3c2ncn3Cc2ccc(-c3ccccc3)cc2)cc1
2. OC[C@H](Cc1ccccc1)Nc1nc(Oc2ccc3c(c2)CCC3)nc2c1ncn2Cc1ccc(-c2ccccc2F)cc1

["27%", "47%"]

---

Task for the reader: assign each of the following molecules its reported Activity.
Biological target: ADP-ribosylation factor GTPase-activating protein 1 (Rattus norvegicus)
Assay: Inhibition of poly-histidine tagged full-length rat ARFGAP1 expressed in Sf9 cells assessed as remaining enzyme activity at 10 uM using purified WT ARF1 pre-loaded with [gamm-32P]-labeled GTP incubated for 5 mins before ARF1-GTP addition followed by 25 mins incubation by scintillation counting method
Answers are plain numbers, in %.

Look over these answered cases.
>  <molecule smiles>
OC[C@H](Cc1ccccc1)Nc1nc(Oc2ccc3c(c2)CCC3)nc2c1ncn2Cc1cn(-c2ccccc2)nn1

>  <target of assay>
ADP-ribosylation factor GTPase-activating protein 1 (Rattus norvegicus)

>  <Activity (%)>
105

$$$$
>  <molecule smiles>
CC[C@@H](CO)Nc1nc(Oc2ccc3c(c2)OCO3)nc2c1ncn2Cc1ccc(-c2ccccc2)cc1

>  <target of assay>
ADP-ribosylation factor GTPase-activating protein 1 (Rattus norvegicus)

>  <Activity (%)>
70

$$$$
>  <molecule smiles>
OC[C@H](Cc1ccccc1)Nc1nc(Oc2ccc3c(c2)CCC3)nc2c1ncn2Cc1ccccc1

>  <target of assay>
ADP-ribosylation factor GTPase-activating protein 1 (Rattus norvegicus)

>  <Activity (%)>
117

$$$$
>  <molecule smiles>
c1ccc(CCNc2nc(Oc3ccc4ccccc4c3)nc3c2ncn3Cc2ccc(-c3ccccc3)cc2)cc1

>  <target of assay>
ADP-ribosylation factor GTPase-activating protein 1 (Rattus norvegicus)

>  <Activity (%)>
90

$$$$
>  <molecule smiles>
COc1cccc(Oc2nc(NCc3cccc4ccccc34)c3ncn(Cc4ccc(-c5ccccc5)cc4)c3n2)c1

>  <target of assay>
ADP-ribosylation factor GTPase-activating protein 1 (Rattus norvegicus)

>  <Activity (%)>
37

$$$$

Kindly give each listed record's Activity.
1. Cc1ccccc1Cn1cc(Cn2cnc3c(N[C@H](CO)Cc4ccccc4)nc(Oc4ccc5c(c4)CCC5)nc32)nn1
2. OC[C@H](Cc1ccccc1)Nc1nc(Oc2cccc3ccccc23)nc2c1ncn2Cc1ccc(-c2ccccc2)cc1
3. c1ccc(-c2ccc(Cn3cnc4c(NCc5cccc6ccccc56)nc(Oc5ccc6c(c5)CCC6)nc43)cc2)cc1

50
35
74

---

Target: ADP-ribosylation factor GTPase-activating protein 1 (Rattus norvegicus)
Assay: Inhibition of poly-histidine tagged full-length rat ARFGAP1 expressed in Sf9 cells assessed as remaining enzyme activity at 20 uM using purified WT ARF1 pre-loaded with [gamm-32P]-labeled GTP incubated for 5 mins before ARF1-GTP addition followed by 25 mins incubation by scintillation counting method
readout kind: Activity (%)
Answers are plain numbers, in %.

Reference set, count: 2
>  <molecule smiles>
OC[C@H](Cc1ccccc1)Nc1nc(Oc2ccc3c(c2)CCC3)nc2c1ncn2Cc1cn(-c2ccccc2)nn1

>  <readout kind>
Activity

>  <measured result>
57

$$$$
>  <molecule smiles>
OC[C@H](Cc1ccccc1)Nc1nc(Oc2ccc3ccccc3c2)nc2c1ncn2Cc1ccc(-c2ccccc2)cc1

>  <readout kind>
Activity

>  <measured result>
35

$$$$

// OC[C@H](Cc1ccccc1)Nc1nc(Oc2cccc3ccccc23)nc2c1ncn2Cc1ccc(-c2ccccc2)cc1 : Activity value = 24
